target.system: human ether-à-go-go-related gene (hERG) potassium channel (human)
assay.method.text: primary screen, population patch clamp on CHO cells stably expressing hERG; higher = less effect of the substance
Screen size: about 310,000 compounds; about 14,000 (4.5%) showed an effect of 50% or more. Effects have a minus sign here. This excerpt belongs to a sample that is enriched for strong results.
property.label: hERG current change (%, negative = inhibition) at 10uM (%)
A number alone suffices; assume %.

-- ask Give hERG current change (%, negative = inhibition) at 10uM for CC(NC(=O)COC(=O)CNC(=O)C1CCCCC1)c1ccccc1 (stereo not drawn) tested on human ether-à-go-go-related gene (hERG) potassium channel (human).
-- reply -3.81

-- ask Give hERG current change (%, negative = inhibition) at 10uM for O=C(NCCc1nc2ccccc2[nH]1)/C(=C/c1ccco1)NC(=O)c1ccco1 tested on human ether-à-go-go-related gene (hERG) potassium channel (human).
-- reply -17.3

-- ask Give hERG current change (%, negative = inhibition) at 10uM for O=C(NCCc1nc2ccccc2[nH]1)/C(=C/c1ccco1)NC(=O)c1ccc(Br)o1 tested on human ether-à-go-go-related gene (hERG) potassium channel (human).
-- reply -63.2

-- ask Give hERG current change (%, negative = inhibition) at 10uM for CCn1c(SCC(=O)N/N=C/c2ccc(O)c(OC)c2)nc2ccccc21 tested on human ether-à-go-go-related gene (hERG) potassium channel (human).
-- reply 2.36

-- ask Give hERG current change (%, negative = inhibition) at 10uM for CCOC(=O)c1c(CSc2ccccc2)n(C)c2ccc(O)c(CN3CCOCC3)c12 tested on human ether-à-go-go-related gene (hERG) potassium channel (human).
-- reply -46.3

-- ask Give hERG current change (%, negative = inhibition) at 10uM for CCCCn1c(C)c(C(=O)OCC)c2c(CN3CCCC3)c(O)ccc21 tested on human ether-à-go-go-related gene (hERG) potassium channel (human).
-- reply -72

-- ask Give hERG current change (%, negative = inhibition) at 10uM for CCOC(=O)c1c(C)n(C)c2ccc(O)c(CN3CCC(C)CC3)c12 tested on human ether-à-go-go-related gene (hERG) potassium channel (human).
-- reply -23.2

-- ask Give hERG current change (%, negative = inhibition) at 10uM for CCCCn1c(C)c(C(=O)OCC)c2c(CN3CCOCC3)c(O)ccc21 tested on human ether-à-go-go-related gene (hERG) potassium channel (human).
-- reply -55.9

-- ask Give hERG current change (%, negative = inhibition) at 10uM for CCOC(=O)c1c(C)n(C)c2ccc(O)c(CN3CCCCC3)c12 tested on human ether-à-go-go-related gene (hERG) potassium channel (human).
-- reply -55.5

====

target.system: human ether-à-go-go-related gene (hERG) potassium channel (human, UniProt Q12809)
Sequence (Q12809 whole entry, looked up): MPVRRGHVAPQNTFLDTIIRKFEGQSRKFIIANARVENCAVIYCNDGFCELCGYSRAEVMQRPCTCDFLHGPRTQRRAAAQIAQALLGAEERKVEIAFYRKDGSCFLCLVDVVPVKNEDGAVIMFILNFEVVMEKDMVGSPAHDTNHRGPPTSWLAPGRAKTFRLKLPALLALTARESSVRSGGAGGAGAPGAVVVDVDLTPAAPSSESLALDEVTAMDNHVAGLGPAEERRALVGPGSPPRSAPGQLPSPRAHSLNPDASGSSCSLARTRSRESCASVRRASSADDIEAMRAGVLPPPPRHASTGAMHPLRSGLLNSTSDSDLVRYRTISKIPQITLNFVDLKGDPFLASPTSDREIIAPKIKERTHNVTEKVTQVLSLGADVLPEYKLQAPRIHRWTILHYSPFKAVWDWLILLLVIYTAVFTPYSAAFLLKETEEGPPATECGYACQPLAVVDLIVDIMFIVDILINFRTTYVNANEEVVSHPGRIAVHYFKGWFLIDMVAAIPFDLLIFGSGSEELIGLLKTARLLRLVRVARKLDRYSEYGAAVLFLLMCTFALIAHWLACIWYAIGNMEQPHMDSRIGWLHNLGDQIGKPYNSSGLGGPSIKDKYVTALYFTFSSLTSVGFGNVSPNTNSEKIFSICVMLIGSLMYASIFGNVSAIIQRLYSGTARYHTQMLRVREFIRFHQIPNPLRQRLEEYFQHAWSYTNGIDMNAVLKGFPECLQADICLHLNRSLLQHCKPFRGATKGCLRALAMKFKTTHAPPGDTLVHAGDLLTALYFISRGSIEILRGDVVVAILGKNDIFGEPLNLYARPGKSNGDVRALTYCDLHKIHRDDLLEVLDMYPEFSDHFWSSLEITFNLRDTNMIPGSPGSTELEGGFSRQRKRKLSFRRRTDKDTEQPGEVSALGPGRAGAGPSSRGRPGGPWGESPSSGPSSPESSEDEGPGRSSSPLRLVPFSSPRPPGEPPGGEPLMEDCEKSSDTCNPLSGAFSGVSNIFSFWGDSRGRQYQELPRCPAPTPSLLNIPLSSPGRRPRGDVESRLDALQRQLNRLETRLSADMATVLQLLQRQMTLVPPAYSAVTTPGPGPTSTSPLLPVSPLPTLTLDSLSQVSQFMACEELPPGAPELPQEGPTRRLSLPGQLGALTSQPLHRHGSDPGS
assay.method.text: primary screen, population patch clamp on CHO cells stably expressing hERG; higher = less effect of the substance
Hit rate of the full screen: of about 310,000 compounds, about 14,000 (4.5%) showed an effect of 50% or more. Effects have a minus sign here. Many of the other results were omitted from the sample, so strong results are more common in it than they were.
property.label: hERG current change (%, negative = inhibition) at 10uM (%)
A number alone suffices; assume %.

-- ask Provide hERG current change (%, negative = inhibition) at 10uM value for the following compound: Cc1ccnc(NC(=O)CN(C)S(=O)(=O)c2cccc3nsnc23)c1
-- reply 7.8

-- ask Provide hERG current change (%, negative = inhibition) at 10uM value for the following compound: CN1CCN(C(CNC(=O)Nc2ccc(Cl)cc2)c2ccc(F)cc2)CC1 (stereo not drawn)
-- reply -56.3

-- ask Provide hERG current change (%, negative = inhibition) at 10uM value for the following compound: Cc1cccc(NC(=O)NCC(c2ccc(F)cc2)N2CCN(C)CC2)c1 (stereo not drawn)
-- reply -42.6

====

target.system: human ether-à-go-go-related gene (hERG) potassium channel (human, UniProt Q12809)
assay.method.text: primary screen, population patch clamp on CHO cells stably expressing hERG; higher = less effect of the substance
The campaign covered roughly 310,000 compounds. About 14,000 (4.5%) showed an effect of 50% or more. The effect is printed as a negative number. The entries come from a sample that favours strong results as a whole.
Would you kindly list hERG current change (%, negative = inhibition) at 10uM for each of these compounds?
A number alone suffices; assume %.

-- ask Give hERG current change (%, negative = inhibition) at 10uM for COc1ccc(OC)c(Nc2c3ccccc3nc3ccccc23)c1 tested on human ether-à-go-go-related gene (hERG) potassium channel (human, UniProt Q12809).
-- reply -11

-- ask Give hERG current change (%, negative = inhibition) at 10uM for COc1ccccc1Nc1nc(-c2ccccc2)nc2ccccc12 tested on human ether-à-go-go-related gene (hERG) potassium channel (human, UniProt Q12809).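 Also: peak tail current of the secondary pulse compared with the same well before compound.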
-- reply 23.5

-- ask Give hERG current change (%, negative = inhibition) at 10uM for COc1cc(NC(=O)c2ccc3c(SCC(=O)O)c4c(nc3c2)CCCC4)cc(OC)c1OC tested on human ether-à-go-go-related gene (hERG) potassium channel (human, UniProt Q12809).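 Also: peak tail current of the secondary pulse compared with the same well before compound.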
-- reply 12.3

====

Would you kindly list hERG current change (%, negative = inhibition) at 10uM for each of these molecules?
target.system: human ether-à-go-go-related gene (hERG) potassium channel (human);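 also: peak tail current of the secondary pulse compared with the same well before compound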
assay.method.text: primary screen, population patch clamp on CHO cells stably expressing hERG; higher = less effect of the substance
Among all 310,000 compounds or so, about 14,000 (4.5%) showed an effect of 50% or more. The effect is printed as a negative number. Shown is part of a subset that was picked to be rich in strong results.
A number alone suffices; assume %.

-- ask Provide hERG current change (%, negative = inhibition) at 10uM value for the following molecule: CS(=O)(=O)Nc1ccc(C(=O)N2CCCCC2)cc1
-- reply -3.35

-- ask Provide hERG current change (%, negative = inhibition) at 10uM value for the following molecule: O=C(Nc1ccc(C(=O)N2CCN(c3ccccc3)CC2)cc1)C1=CSCCO1
-- reply -39.8

-- ask Provide hERG current change (%, negative = inhibition) at 10uM value for the following molecule: O=C(CN1C(=O)NC2(CCCCCC2)C1=O)NCCc1ccc(F)cc1
-- reply -13

-- ask Provide hERG current change (%, negative = inhibition) at 10uM value for the following molecule: CC(C)CN(C(=O)COC(=O)c1c2c(nc3ccccc13)CCC2)c1c(N)n(Cc2ccccc2)c(=O)[nH]c1=O
-- reply 4.06

-- ask Provide hERG current change (%, negative = inhibition) at 10uM value for the following molecule: COc1ccc2nc(C)c3c(c2c1)OC(C(C)(Cl)Br)C3 (stereo not drawn)
-- reply -34

-- ask Provide hERG current change (%, negative = inhibition) at 10uM value for the following molecule: O=C(Nc1ccc(C(=O)N2CCN(c3ccccc3F)CC2)cc1)C1=CSCCO1
-- reply -50.3

====

target.system: human ether-à-go-go-related gene (hERG) potassium channel (human, UniProt Q12809);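 also: peak tail current of the secondary pulse compared with the same well before compound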
assay.method.text: primary screen, population patch clamp on CHO cells stably expressing hERG; higher = less effect of the substance
About 14,000 (4.5%) of roughly 310,000 compounds showed an effect of 50% or more. Effects have a minus sign here. What follows is part of a selection rich in strong results, with near analogues and random picks from the rest.
property.label: hERG current change (%, negative = inhibition) at 10uM (%)
A number alone suffices; assume %.

-- ask Provide hERG current change (%, negative = inhibition) at 10uM value for the following molecule: O=C(CSc1oc(-c2cccs2)nc1S(=O)(=O)c1ccccc1)NC1CCCCC1
-- reply 17.7

-- ask Provide hERG current change (%, negative = inhibition) at 10uM value for the following molecule: O=C(CCNC(=O)c1ccc([N+](=O)[O-])cc1)Nc1ccccc1N1CCOCC1
-- reply -64.3

-- ask Provide hERG current change (%, negative = inhibition) at 10uM value for the following molecule: CCOC(=O)c1c(N2CCN(c3ccccc3)CC2)cc(C)nc1C.O=C([O-])C(=O)[O-]
-- reply -72

-- ask Provide hERG current change (%, negative = inhibition) at 10uM value for the following molecule: Cc1ccc(NC(=O)c2ccc(Cl)cc2[N+](=O)[O-])nc1
-- reply 6.4

-- ask Provide hERG current change (%, negative = inhibition) at 10uM value for the following molecule: Cc1cc(C(=O)CN2CCN(CC(=O)Nc3cccc(F)c3)CC2)c(C)n1C1CC1
-- reply -56.2

-- ask Provide hERG current change (%, negative = inhibition) at 10uM value for the following molecule: Cc1cccc(C)c1NC(=O)CN1CCN(CC(=O)c2cc(C)n(C3CC3)c2C)CC1
-- reply -12.4

-- ask Provide hERG current change (%, negative = inhibition) at 10uM value for the following molecule: Cc1cc(C(=O)OCC(=O)Nc2ccc(F)cc2)c(C)n1C1CC1
-- reply 5.51

-- ask Provide hERG current change (%, negative = inhibition) at 10uM value for the following molecule: Cc1cc(C(=O)CN2CCN(CC(=O)Nc3ccc(F)cc3)CC2)c(C)n1C1CC1
-- reply -74.5

Origin of measurements: paper PMC4336329
